Target: TLR3 (Mus musculus, UniProt Q99MB1)
Construct: endogenous in cells; host or cells: RAW 264.7
Assay: In vitro TLR3 inhibition assay: Poly IC-induced NO production in RAW 264.7 cells
Type: cell-based
Details: whole cell inhibitory activity; Poly IC-induced NO, RAW 264.7; average ± SD, at least three independent tests
endpoint_name: IC50 (µM)

O=C(N[C@@H](Cc1ccc(O)cc1)C(=O)O)c1sc2cc(F)ccc2c1Cl [Compound 7b]: 84.7
O=C(N[C@@H](Cc1ccccc1)C(=O)O)c1sc2cc(F)ccc2c1Cl [Compound 4b]: 21.9
Cc1ccc2c(Cl)c(C(=O)N[C@@H](Cc3ccccc3)C(=O)O)sc2c1 [Compound 2b]: 31.7
O=C(N[C@@H](Cc1ccccc1)C(=O)O)c1sc2cc(Cl)ccc2c1Cl [Compound 3b]: 11.8

A = Cc1ccc2c(Cl)c(C(=O)N[C@H](Cc3ccccc3)C(=O)O)sc2c1 [Compound 2a]
B = O=C(N[C@@H](Cc1ccccc1)C(=O)O)c1sc2cc(F)c(F)cc2c1Cl [Compound 8b]
q: Which numeric IC50 is bigger, that of A or that of B ? Your answer should be the label of the entry you select.
a: B

====

Target: TLR3 (Mus musculus, UniProt Q99MB1)
Construct: endogenous in cells; host or cells: RAW 264.7
Sequence (Q99MB1 26-905): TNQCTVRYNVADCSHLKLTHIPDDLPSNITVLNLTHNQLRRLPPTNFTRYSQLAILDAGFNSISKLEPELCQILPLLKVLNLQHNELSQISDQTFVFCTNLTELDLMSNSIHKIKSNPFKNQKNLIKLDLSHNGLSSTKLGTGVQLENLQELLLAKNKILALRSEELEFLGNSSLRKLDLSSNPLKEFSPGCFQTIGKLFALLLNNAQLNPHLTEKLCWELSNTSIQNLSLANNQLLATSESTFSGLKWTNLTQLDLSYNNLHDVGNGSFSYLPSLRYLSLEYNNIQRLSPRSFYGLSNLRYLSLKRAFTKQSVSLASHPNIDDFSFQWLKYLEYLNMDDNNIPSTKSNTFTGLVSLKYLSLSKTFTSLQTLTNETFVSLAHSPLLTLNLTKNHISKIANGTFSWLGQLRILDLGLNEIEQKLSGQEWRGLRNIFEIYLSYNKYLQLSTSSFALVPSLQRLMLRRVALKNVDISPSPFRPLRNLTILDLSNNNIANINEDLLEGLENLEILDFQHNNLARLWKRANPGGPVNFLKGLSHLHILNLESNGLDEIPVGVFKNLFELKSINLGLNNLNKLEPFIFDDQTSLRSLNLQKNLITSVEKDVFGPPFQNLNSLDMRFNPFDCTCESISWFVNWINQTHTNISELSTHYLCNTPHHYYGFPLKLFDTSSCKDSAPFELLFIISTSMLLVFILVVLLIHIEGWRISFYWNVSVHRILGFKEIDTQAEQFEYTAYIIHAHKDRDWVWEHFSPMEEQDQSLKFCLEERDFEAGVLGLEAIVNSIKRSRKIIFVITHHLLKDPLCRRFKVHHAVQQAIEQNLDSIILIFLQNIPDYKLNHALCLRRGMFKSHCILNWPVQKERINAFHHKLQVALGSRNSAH
Assay: In vitro TLR3 inhibition assay: Poly IC-induced NO production in RAW 264.7 cells
Format: cell-based
Conditions: whole cell inhibitory activity; second part of Table 1 (R5/R6 series)
endpoint_name: IC50

Solved cases below.
O=C(O)[C@@H](Cc1ccc(O)cc1)NS(=O)(=O)c1cccc(F)c1 [Compound 18a]: > 100 µM
O=C(O)[C@H](Cc1ccc(O)cc1)NS(=O)(=O)c1ccccc1F [Compound 17b]: > 100 µM

q: I have this molecule here, O=C(O)[C@H](Cc1ccc(O)cc1)NS(=O)(=O)c1cccc(F)c1 [Compound 18b] , and I need its recorded IC50.
a: > 100 µM

====

Target: TLR3 (Mus musculus, UniProt Q99MB1)
Construct: endogenous in cells; host or cells: RAW 264.7
Sequence (Q99MB1 26-905): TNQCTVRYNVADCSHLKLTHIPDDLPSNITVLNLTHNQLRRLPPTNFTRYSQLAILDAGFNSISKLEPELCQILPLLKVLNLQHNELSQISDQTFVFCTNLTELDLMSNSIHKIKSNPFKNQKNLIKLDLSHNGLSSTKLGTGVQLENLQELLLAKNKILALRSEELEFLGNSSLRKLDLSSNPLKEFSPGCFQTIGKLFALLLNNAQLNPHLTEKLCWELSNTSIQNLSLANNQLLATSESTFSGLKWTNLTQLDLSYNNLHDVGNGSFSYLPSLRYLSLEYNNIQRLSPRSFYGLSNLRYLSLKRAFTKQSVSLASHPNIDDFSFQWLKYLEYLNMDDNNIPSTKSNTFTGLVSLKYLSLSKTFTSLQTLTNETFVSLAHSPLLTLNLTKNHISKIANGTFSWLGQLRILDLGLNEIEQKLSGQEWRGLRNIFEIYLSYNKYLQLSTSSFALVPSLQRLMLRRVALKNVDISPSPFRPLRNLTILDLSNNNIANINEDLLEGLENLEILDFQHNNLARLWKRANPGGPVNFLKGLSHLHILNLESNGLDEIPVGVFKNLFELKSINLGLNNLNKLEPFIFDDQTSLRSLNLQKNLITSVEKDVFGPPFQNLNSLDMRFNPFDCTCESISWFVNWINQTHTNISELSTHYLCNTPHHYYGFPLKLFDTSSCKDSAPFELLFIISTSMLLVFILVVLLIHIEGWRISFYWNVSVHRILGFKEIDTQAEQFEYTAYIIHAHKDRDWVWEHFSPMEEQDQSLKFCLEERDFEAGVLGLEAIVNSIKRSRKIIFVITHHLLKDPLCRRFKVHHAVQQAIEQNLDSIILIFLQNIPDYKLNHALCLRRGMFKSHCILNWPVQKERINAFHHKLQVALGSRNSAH
Assay: In vitro TLR3 inhibition assay: Poly IC-induced NO production in RAW 264.7 cells
Type: cell-based
Conditions: Poly IC-induced TLR3 activation, cell assay
endpoint_name: IC50 (µM)

O=C(N[C@H](Cc1ccccc1)C(=O)O)c1cc2c(s1)CCCCC2 [Compound T5626448, reference compound]: 154

P = O=C(N[C@H](Cc1ccccc1)C(=O)O)c1sc2cc(F)ccc2c1Cl
Q = O=C(O)[C@@H](Cc1ccccc1)NS(=O)(=O)c1ccccc1F [Compound T5260630, reference compound]
q: Consider entries P and Q . Which has the numerically lower IC50? Your answer should be the label of the entry you select.
a: P
(P: 3.44 µM, Q: 145 µM)

====

Quick list: IC50 per entry.
Target: TLR3 (Mus musculus, UniProt Q99MB1)
Construct: endogenous in cells; host or cells: RAW 264.7
Sequence (Q99MB1 26-905): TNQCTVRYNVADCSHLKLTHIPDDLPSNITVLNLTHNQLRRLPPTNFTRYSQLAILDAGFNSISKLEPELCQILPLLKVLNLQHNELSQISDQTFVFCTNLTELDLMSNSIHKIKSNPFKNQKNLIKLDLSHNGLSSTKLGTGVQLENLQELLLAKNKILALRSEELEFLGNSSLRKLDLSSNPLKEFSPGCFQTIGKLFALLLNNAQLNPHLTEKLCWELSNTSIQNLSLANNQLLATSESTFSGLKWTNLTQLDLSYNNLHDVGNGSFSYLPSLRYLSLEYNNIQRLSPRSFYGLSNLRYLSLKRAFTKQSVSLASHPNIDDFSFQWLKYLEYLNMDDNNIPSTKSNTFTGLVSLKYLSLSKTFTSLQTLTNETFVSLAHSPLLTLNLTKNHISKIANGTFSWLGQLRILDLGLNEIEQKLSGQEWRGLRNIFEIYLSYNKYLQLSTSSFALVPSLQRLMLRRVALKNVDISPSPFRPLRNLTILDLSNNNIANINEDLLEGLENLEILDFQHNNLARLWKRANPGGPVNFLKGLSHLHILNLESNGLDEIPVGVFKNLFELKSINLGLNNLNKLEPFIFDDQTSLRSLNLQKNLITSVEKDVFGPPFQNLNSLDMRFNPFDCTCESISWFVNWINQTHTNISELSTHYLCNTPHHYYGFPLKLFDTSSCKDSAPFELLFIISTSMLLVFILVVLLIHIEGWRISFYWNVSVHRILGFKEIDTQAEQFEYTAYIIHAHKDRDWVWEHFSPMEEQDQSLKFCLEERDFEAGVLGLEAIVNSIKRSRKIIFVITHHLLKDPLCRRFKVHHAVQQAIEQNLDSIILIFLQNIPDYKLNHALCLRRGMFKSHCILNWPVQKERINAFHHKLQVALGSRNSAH
Assay: In vitro TLR3 inhibition assay: Poly IC-induced NO production in RAW 264.7 cells
Format: cell-based
Conditions: whole cell inhibitory activity; Poly IC-induced NO, RAW 264.7; average ± SD, at least three independent tests

q: What measured IC50 is associated with O=C(N[C@H](Cc1ccccc1)C(=O)O)c1cc2cc(F)ccc2s1 [Compound 10a] on TLR3 (Mus musculus, UniProt Q99MB1)?
a: > 100 µM

q: What measured IC50 is associated with O=C(N[C@@H](Cc1ccccc1)C(=O)O)c1cc2ccccc2s1 [Compound 1b] on TLR3 (Mus musculus, UniProt Q99MB1)?
a: > 155 µM

q: What measured IC50 is associated with O=C(N[C@H](Cc1ccccc1)C(=O)O)c1cc2ccccc2s1 [Compound 1a] on TLR3 (Mus musculus, UniProt Q99MB1)?
a: > 155 µM

q: What measured IC50 is associated with O=C(N[C@@H](Cc1ccccc1)C(=O)O)c1cc2ccc(F)cc2s1 [Compound 13b] on TLR3 (Mus musculus, UniProt Q99MB1)?
a: > 100 µM
